Measured values drawn from ChEMBL document CHEMBL1268899 for this set.

Assign pKi to each entry below.
target: Polyunsaturated fatty acid lipoxygenase ALOX15 (Homo sapiens); assay: Inhibition of human N-terminal His6-tagged reticulocyte 15-lipoxygenase-1 after 15 mins by UV-vis spectrophotometer analysis; settings: read-out: Ki(app)
Sequence (P16050 whole entry): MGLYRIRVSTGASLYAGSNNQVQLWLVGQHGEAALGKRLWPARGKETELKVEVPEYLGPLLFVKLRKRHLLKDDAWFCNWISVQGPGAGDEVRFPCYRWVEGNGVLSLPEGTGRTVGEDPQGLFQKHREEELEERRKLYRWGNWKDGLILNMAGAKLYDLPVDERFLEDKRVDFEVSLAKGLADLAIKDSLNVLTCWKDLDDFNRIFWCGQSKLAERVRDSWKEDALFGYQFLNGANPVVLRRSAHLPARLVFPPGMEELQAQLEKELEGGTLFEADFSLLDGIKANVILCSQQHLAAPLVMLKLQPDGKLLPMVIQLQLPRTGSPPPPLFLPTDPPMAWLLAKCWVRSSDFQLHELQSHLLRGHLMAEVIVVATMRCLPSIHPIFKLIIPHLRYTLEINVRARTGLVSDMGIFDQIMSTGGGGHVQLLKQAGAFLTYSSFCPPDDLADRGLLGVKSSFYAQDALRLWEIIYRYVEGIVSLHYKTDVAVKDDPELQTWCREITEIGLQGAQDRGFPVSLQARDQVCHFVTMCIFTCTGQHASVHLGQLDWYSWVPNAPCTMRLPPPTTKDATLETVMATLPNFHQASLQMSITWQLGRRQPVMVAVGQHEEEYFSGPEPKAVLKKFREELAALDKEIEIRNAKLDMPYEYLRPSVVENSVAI
pKi: −log10 of the molar value.

Which pKi is reported with Polyunsaturated fatty acid lipoxygenase ALOX15 (Homo sapiens) for this entry: O=C(OCc1ccc(CSc2nnc(-c3cccc4ccccc34)o2)cc1)c1ccc(F)cc1 ?
< 4.15

Which pKi is reported with Polyunsaturated fatty acid lipoxygenase ALOX15 (Homo sapiens) for this entry: O=C(OCC#CCSc1nnc(-c2cccc3ccccc23)o1)c1ccc(Br)cc1 ?
> 8.00

Which pKi is reported with Polyunsaturated fatty acid lipoxygenase ALOX15 (Homo sapiens) for this entry: O=C(OCC#CCSc1nnc(-c2cccc3ccccc23)o1)c1sccc1Cl ?
> 8.00

Which pKi is reported with Polyunsaturated fatty acid lipoxygenase ALOX15 (Homo sapiens) for this entry: O=C(OCC#CCSc1nnc(-c2cccc3ccccc23)o1)c1ccc(C(F)(F)F)cc1 ?
> 8.00

Which pKi is reported with Polyunsaturated fatty acid lipoxygenase ALOX15 (Homo sapiens) for this entry: O=C(OCC#CCSc1nnc(-c2cccc3ccccc23)o1)c1ccc(Cl)cc1 ?
> 8.00
